The following compounds are listed with their measured pKi values.
- studyTarget: Cy5-labelled Mcl1 (amino acids 171-321) C286S protein (UniProtKB Q07820) (Homo sapiens (Human), UniProt Q07820, C286S)
- Sequence (Q07820 171-321 C286S): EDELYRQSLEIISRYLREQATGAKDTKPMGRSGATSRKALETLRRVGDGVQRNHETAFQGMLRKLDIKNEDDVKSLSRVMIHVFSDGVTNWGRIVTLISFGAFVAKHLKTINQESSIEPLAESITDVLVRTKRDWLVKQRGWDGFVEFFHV
- procedureText: Inhibition of Mcl-1 by the fluorescence quenching assay (Example A, Method B)
- Assay type: binding
- conditionLabel: Ki determined from IC50
- Description: Fluorescence quenching assay measures the change fluorescence intensity of C-terminally Cy5-labelled Mcl1 (amino acids 171-321) C286S protein (UniProtKB® primary accession number Q07820) having an amino acid sequence: […] The addition of a compound which binds competitively to the same site as the peptide will result in an increase in the fluorescence intensity of the protein due to displacement of the fluorescence quencher. […]
Formally, pKi is defined as -log10 of the concentration c, with c in mol/L.

Sample records with pKi:
C[C@@H](COc1ccnc2c1[C@H](C)CCC2)CN1Cc2ccccc2[C@]12CC[C@@](Nc1cccc(Cl)c1)(C(=O)O)CC2 [Example 40]    9.01
C[C@@H](COc1ccnc2c1[C@H](C)CCC2)CN1Cc2cc3c(cc2[C@]12CC[C@@](Nc1ccc(F)c(Cl)c1)(C(=O)O)CC2)OCO3 [Example 47]    10.03
O=C(O)[C@]1(Nc2cccc(Cl)c2)CC[C@@]2(CC1)c1ccccc1CN2CCCOc1ccnc2ccsc12 [Example 36]    6.13

[ask] For the compound shown here, N#Cc1cccc(N[C@]2(C(=O)O)CC[C@@]3(CC2)C(Br)=Cc2ccccc23)c1 [Example 82] , give the reported pKi.
[reply] 6.36
